- SYSTEM TESTED: human IDO1 (Homo sapiens, UniProt P14902)
- Sequence (P14902 whole entry): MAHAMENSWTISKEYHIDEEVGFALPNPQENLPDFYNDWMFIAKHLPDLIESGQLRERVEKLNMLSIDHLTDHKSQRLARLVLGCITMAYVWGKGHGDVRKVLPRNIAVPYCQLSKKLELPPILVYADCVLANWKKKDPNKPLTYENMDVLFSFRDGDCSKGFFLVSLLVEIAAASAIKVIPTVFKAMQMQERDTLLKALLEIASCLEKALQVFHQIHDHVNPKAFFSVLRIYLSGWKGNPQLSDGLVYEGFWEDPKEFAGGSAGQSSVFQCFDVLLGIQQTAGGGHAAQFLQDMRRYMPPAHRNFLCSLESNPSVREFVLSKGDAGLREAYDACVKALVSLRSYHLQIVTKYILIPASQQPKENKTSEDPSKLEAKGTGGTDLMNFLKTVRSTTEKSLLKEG
- PROTOCOL NOTES: Assessment of human IDO-1 inhibitory activity in Hela cells (Interferon-gamma activated, Ehrlich reagent, absorbance at 490 nm)
- Type: cell-based
- Set-up: endogenous in cells; host or cells: HeLa cells stimulated with interferon-gamma
- SETTINGS: 18 hours
MEASUREMENT LABEL: IC50

Briefly, IC50 measured for CCOc1ncc(Nc2cc(C(COC)CC(=O)O)ccc2N(C)C2CCOCC2)cn1 (single isomer, unassigned) : > 0.05 µM

The compound listed as CCOc1ncc(Nc2cc(C(CC)CC(=O)O)cc(F)c2N(CC)C2CCOCC2)cn1 (single isomer, unassigned) has a reported IC50 of < 0.005 µM

The compound CCN(c1ccc(C(CC(=O)O)C2CC2)cc1NC(=O)Nc1ccc(C#N)cc1)C1CCOCC1 (single isomer, unassigned) [Example 255 Enantiomer 2] showed IC50 equal to > 0.05 µM

The recorded IC50 for Cc1ccc(NC(=O)Nc2cc(C(CC(=O)O)C3CC3)ccc2N2C[C@@H](C)O[C@@H](C)C2)cc1 (single isomer, unassigned) [Example 251 Enantiomer 2] is > 0.05 µM

Recorded IC50 (compound CCOc1ncc(Nc2cc(C(CC)CC(=O)O)ccc2N2CCN(C(=O)OC)CC2)cn1 (single isomer, unassigned) ): > 0.05 µM

----------
- SYSTEM TESTED: human IDO1 (Homo sapiens)
- PROTOCOL NOTES: Assessment of human IDO-1 inhibitory activity in HEK cells (human IDO1/HEK293 cells, Ehrlich reagent, absorbance at 490 nm)
- Format: cell-based
- Set-up: expressed in transfected cells
- SETTINGS: In Vitro Potency in the HEK Human IDO-1 Cellular Assay
pIC50: −log10 of the molar value.
Measured pIC50 of individual entries

INSERT INTO results (compound, system_tested, measurement) VALUES
  ('COCC(CC(=O)O)c1ccc(N(CC(C)C)C2CCOCC2)c(NC(=O)Nc2cc(C)on2)c1 (single isomer, unassigned)', 'human IDO1 (Homo sapiens)', '< 7.30'),
  ('CCN(c1ccc([C@@H](COC)CC(=O)O)cc1Nc1ccc2c(c1)OC(F)(F)O2)C1CCOCC1 (single isomer, unassigned)', 'human IDO1 (Homo sapiens)', '> 7.30'),
  ('CCC(CC(=O)O)c1ccc(N2CCC[C@@H]2C(C)(C)O)c(NC(=O)Nc2ccc(OC)cc2)c1 (single isomer, unassigned)', 'human IDO1 (Homo sapiens)', '< 7.30'),
  ('CCC(CC(=O)O)c1cc(F)c(N(CC(C)C)CC(C)C)c(Nc2ccc(OCC(F)(F)F)cc2)c1 (single isomer, unassigned)', 'human IDO1 (Homo sapiens)', '< 7.30'),
  ('CCC(CC(=O)O)c1ccc(N(CC(C)C)C2CCCCC2)c(Nc2ccc(F)c(F)c2)c1 (single isomer, unassigned)', 'human IDO1 (Homo sapiens)', '> 8.30');

// sample CCC(CC(=O)O)c1ccc(N(CC(C)C)CC(C)C)c(NC(=O)Cc2ccc(C#N)cc2)c1 (single isomer, unassigned) , its pIC50 was > 8.30

----------
- SYSTEM TESTED: human IDO1 (Homo sapiens, UniProt P14902)
- PROTOCOL NOTES: Assessment of human IDO-1 inhibitory activity in HEK cells (human IDO1/HEK293 cells, Ehrlich reagent, absorbance at 490 nm)
- Type: cell-based
- Design: expressed in transfected cells
- SETTINGS: In Vitro Potency in the HEK Human IDO-1 Cellular Assay
pIC50: −log10 of the molar value.
MEASUREMENT LABEL: pIC50

INSERT INTO assay_data (compound, measurement) VALUES
  ('CCOc1ccc(NC(=O)Nc2cc(C(CC)CC(=O)O)c(F)cc2N(CC(C)C)CC(C)C)c(F)c1 (single isomer, unassigned)', '> 8.30'),
  ('CCC(CC(=O)O)c1cc(F)c(N(CC(C)C)CC(C)C)c(NC(=O)Cc2ccc(C)cc2)c1 (single isomer, unassigned)', '> 8.30'),
  ('CCc1ccc(Nc2cc(C(CC)CC(=O)O)ccc2N2CCC[C@H]2C(C)(C)O)cc1 (single isomer, unassigned)', '< 7.30'),
  ('Cc1ccc(CC(=O)Nc2cc(C(CC(=O)O)C3CC3)ccc2N(CC(C)C)C2CCCCC2)cc1 (single isomer, unassigned)', '> 8.30'),
  ('COCC(CC(=O)O)c1cc(F)c(N(CC(C)C)C2CCCCC2)c(NC(=O)Nc2ccc(Cl)cc2F)c1 (single isomer, unassigned)', '> 8.30'),
  ('CC(C)C(CC(=O)O)c1ccc(N(C)C(C)(C)C)c(Nc2nc3ccccc3o2)c1 (single isomer, unassigned)', '< 7.30'),
  ('CCOc1ncc(Nc2cc(C(C)CC(=O)O)ccc2N2C[C@@H](C)O[C@@H](C)C2)cn1 (single isomer, unassigned)', '< 7.30'),
  ('CC(C)CN(c1ccc(C(C)CC(=O)O)cc1NC(=O)Nc1cncnc1)C1CCOCC1 (single isomer, unassigned)', '< 7.30'),
  ('CCC(CC(=O)O)c1ccc(N(CC(C)C)C2CCCCC2)c(Nc2ccc(Cl)c(OCC(F)(F)F)c2)c1 (single isomer, unassigned)', '> 7.30');

Moving on to the next compound.
Input CCC(CC(=O)O)c1ccc(N2CCC[C@H]2C(C)(C)O)c(NC(=O)Nc2ccc(Cl)cc2F)c1 (single isomer, unassigned) . Output pIC50: < 7.30

----------
- SYSTEM TESTED: human IDO1 (Homo sapiens, UniProt P14902)
- PROTOCOL NOTES: Assessment of human IDO-1 inhibitory activity in HEK cells (human IDO1/HEK293 cells, Ehrlich reagent, absorbance at 490 nm)
- Assay type: cell-based
- Set-up: expressed in transfected cells
- SETTINGS: In Vitro Potency in the HEK Human IDO-1 Cellular Assay
pIC50: −log10 of the molar value.
MEASUREMENT LABEL: pIC50

// COCC(CC(=O)O)c1ccc(N(CC(C)C)C2CCC(OC)CC2)c(NC(=O)Nc2ccc(Cl)cc2F)c1 (racemic) : pIC50 value = > 8.30

Note to self: pIC50 recorded for CCC(CC(=O)O)c1ccc(N(CC(C)C)C2CCCCC2)c(Nc2ccc(Cl)c(OCC(F)F)c2)c1 (single isomer, unassigned) was > 8.30

Entry under test: CCC(CC(=O)O)c1ccc(N2CCOC[C@H]2C(C)C)c(NC(=O)Nc2ccc(C)cc2)c1 (single isomer, unassigned) . Its pIC50 was < 7.30

Input COCC(CC(=O)O)c1ccc(N(CC(C)C)C2CCCCC2)c(NC(=O)Nc2ccc(C)cc2)c1 (single isomer, unassigned) . Output pIC50: > 8.30

----------
# reported IC50; entries follow
- SYSTEM TESTED: human IDO1 (Homo sapiens)
- PROTOCOL NOTES: Assessment of human IDO-1 inhibitory activity in Hela cells (Interferon-gamma activated, Ehrlich reagent, absorbance at 490 nm)
- Format: cell-based
- Design: endogenous in cells; host or cells: HeLa cells stimulated with interferon-gamma
- SETTINGS: 18 hours

Example entries begin here.
INSERT INTO assay_data (compound, system_tested, measurement_label, measurement) VALUES
  ('CCOc1ncc(Nc2cc(C(CC)CC(=O)O)ccc2N2CCC(C)CC2)cn1 (single isomer, unassigned) [Example 45]', 'human IDO1 (Homo sapiens)', 'IC50', '> 50 nM'),
  ('COCC(CC(=O)O)c1ccc(N2CCOC[C@H]2C(C)C)c(NC(=O)Nc2ccc(C#N)cc2)c1 (single isomer, unassigned) [Example 915]', 'human IDO1 (Homo sapiens)', 'IC50', '> 50 nM'),
  ('CCC(CC(=O)O)c1ccc(N2CCC(C)CC2)c(Nc2cnc(OC)nc2)c1 (single isomer, unassigned) [Example 44]', 'human IDO1 (Homo sapiens)', 'IC50', '> 50 nM');

Item: C[C@@H]1CN(c2ccc(C(CC(=O)O)C3CC3)cc2Nc2ccc(Cl)cc2)C[C@H](C)O1 (single isomer, unassigned) [Example 248] | IC50: < 50 nM

----------
- SYSTEM TESTED: human IDO1 (Homo sapiens, UniProt P14902)
- PROTOCOL NOTES: Assessment of human IDO-1 inhibitory activity in HEK cells (human IDO1/HEK293 cells, Ehrlich reagent, absorbance at 490 nm)
- Assay type: cell-based
- Design: expressed in transfected cells
- SETTINGS: In Vitro Potency in the HEK Human IDO-1 Cellular Assay
MEASUREMENT LABEL: IC50

Example entries and their recorded answers appear below.
INSERT INTO assay_data (molecule, measurement) VALUES
  ('CCN(c1ccc(C(CC(=O)O)c2ccccc2)cc1Nc1ccc(OC(F)F)cc1)C1CCOCC1 (single isomer, unassigned)', '< 0.05 µM'),
  ('CCN(c1ccc(C(CC(=O)O)c2ccccc2)cc1Nc1ccc2nc(C)sc2c1)C1CCOCC1 (single isomer, unassigned)', '> 0.05 µM'),
  ('CCOc1ccc(NC(=O)Nc2cc(C(CC)CC(=O)O)c(F)cc2N(CC(C)C)C2CCCCC2)c(F)c1 (single isomer, unassigned)', '< 0.005 µM'),
  ('CCC(CC(=O)O)c1ccc(N2CCOC[C@H]2C(C)C)c(NC(=O)Nc2ccc(Cl)cc2F)c1 (single isomer, unassigned)', '< 0.05 µM'),
  ('CCC(CC(=O)O)c1ccc(N2CCC[C@@H]2C(C)(C)O)c(NC(=O)Nc2ccc(C)cc2)c1 (single isomer, unassigned)', '> 0.05 µM'),
  ('CCC(CC(=O)O)c1ccc(N2CC3CC2CN3Cc2ccccc2)c(NC(=O)Nc2ccc(C)cc2)c1 (single isomer, unassigned) [667 E1]', '> 0.05 µM'),
  ('COCC(CC(=O)O)c1ccc(N(CC2CC2)C2CCOCC2)c(NC(=O)Nc2ccc(C)cc2)c1 (single isomer, unassigned)', '> 0.05 µM'),
  ('CCN(c1ccc(C(CC(=O)O)c2ccccc2)cc1NC(=O)Nc1ccc(OC)cc1F)C1CCOCC1 (single isomer, unassigned)', '> 0.05 µM'),
  ('CCC(CC(=O)O)c1cc(F)c(N(CC(C)C)CC(C)C)c(Nc2ccnc(N3CCOCC3)n2)c1 (single isomer, unassigned)', '> 0.05 µM'),
  ('COCC(CC(=O)O)c1ccc(N(CC(C)C)C2CCCCC2)c(NC(=O)Nc2ccc(OC)cc2F)c1 (single isomer, unassigned)', '< 0.005 µM');

Measured IC50, CCC(CC(=O)O)c1cc(NC(=O)Nc2cnc(OC)nc2)c(N(CC(C)C)CC(C)C)cc1F (single isomer, unassigned) : < 0.005 µM

Form: molecule = COc1ncc(Nc2cc(C(C)CC(=O)O)ccc2N2CCC[C@H]2C(C)(C)O)cn1 (single isomer, unassigned) ; IC50 = > 0.05 µM

The value of IC50 measured for the molecule CCOc1ccc(NC(=O)Nc2cc([C@@H](CC)CC(=O)O)ccc2N(CC)C2CCOCC2)cc1 (single isomer, unassigned) turned out to be < 0.05 µM

For this molecule ( COCC(CC(=O)O)c1ccc(N(CC(C)C)CC(C)C)c(NC(=O)Nc2cc(C)on2)c1 (single isomer, unassigned) ), measured IC50 is < 0.05 µM

Source listed as patent US10399932B2.
